All figures here come from patent US8124587B2.

- experimentalTarget: Human plasmin (Homo sapiens, UniProt P00747)
- Construct: Human plasmin (CHROMOGENIX, Milano, Italy); purchased CHROMOGENIX, Milano, Italy
- Sequence (P00747 581-810 limits assumed): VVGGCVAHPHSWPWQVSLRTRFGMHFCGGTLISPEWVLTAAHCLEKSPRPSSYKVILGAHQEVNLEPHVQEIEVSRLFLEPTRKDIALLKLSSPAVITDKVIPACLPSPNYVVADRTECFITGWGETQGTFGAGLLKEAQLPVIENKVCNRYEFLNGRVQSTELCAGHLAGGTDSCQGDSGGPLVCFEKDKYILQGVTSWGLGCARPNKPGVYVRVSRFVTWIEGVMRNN
- Sequence (P00747 97-580 limits assumed): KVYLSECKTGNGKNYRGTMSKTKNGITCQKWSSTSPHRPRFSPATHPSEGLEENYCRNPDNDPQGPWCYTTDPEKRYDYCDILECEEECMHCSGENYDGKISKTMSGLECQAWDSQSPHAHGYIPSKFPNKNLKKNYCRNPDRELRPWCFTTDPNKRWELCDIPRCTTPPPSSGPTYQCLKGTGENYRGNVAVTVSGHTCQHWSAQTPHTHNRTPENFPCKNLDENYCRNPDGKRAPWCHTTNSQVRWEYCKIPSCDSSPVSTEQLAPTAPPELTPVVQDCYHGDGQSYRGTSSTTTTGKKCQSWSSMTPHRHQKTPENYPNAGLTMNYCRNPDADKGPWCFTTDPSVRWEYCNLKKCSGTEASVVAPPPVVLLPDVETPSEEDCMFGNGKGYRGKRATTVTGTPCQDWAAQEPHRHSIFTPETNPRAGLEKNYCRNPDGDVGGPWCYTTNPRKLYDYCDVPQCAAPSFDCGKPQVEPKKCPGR
- procedureSummary: Enzyme kinetic determination of Ki with chromogenic substrate, plasmin
- Format: biochemical
- assaySetup: Tris buffer pH 8.0, 25° C., Chromozym PL
Reported Ki values follow for various compounds
Answer in nM, number only, no unit symbol.

Worked cases, answers included:
INSERT INTO assay_data (compound, unitsymbol, measurement) VALUES
  ('NCc1ccc(Cl)cc1CNC(=O)[C@@H]1CCCN1C(=O)C(CCc1cccc[n+]1[O-])NC(=O)C(=O)O (some centres unmarked)', 'nM', 80000),
  ('CC(C)OC(=O)CS(=O)(=O)NC(CCc1cccc[n+]1[O-])C(=O)NCC(=O)NCc1cc(Cl)ccc1CN (centres unmarked)', 'nM', 305000),
  ('NCc1ccc(Cl)cc1CNC(=O)[C@H](CO)NC(=O)[C@@H](CCc1ccccn1)NS(=O)(=O)Cc1ccc(CC(=O)O)cc1', 'nM', 100000),
  ('COC(=O)CC[C@H](NC(=O)C(CCc1cccc[n+]1[O-])NS(=O)(=O)Cc1ccccc1)C(=O)NCc1cc(Cl)ccc1CN (some centres unmarked)', 'nM', 130000),
  ('NCc1ccc(Cl)cc1CNC(=O)CNC(=O)[C@@H](CCc1cccc[n+]1[O-])NS(=O)(=O)Cc1ccccc1', 'nM', 600000),
  ('NCc1ccc(Cl)cc1CNC(=O)[C@@H]1CCCN1C(=O)[C@@H](CCc1cccc[n+]1[O-])NS(=O)(=O)CC(=O)O', 'nM', 98000);

Query block: Enter recorded Ki with Human plasmin (Homo sapiens, UniProt P00747) for NCc1ccc(Cl)cc1CNC(=O)CNC(=O)C(CCc1ccccn1)NS(=O)(=O)Cc1ccc(C(=O)O)cc1 (centres unmarked) here.
Result block: 140000

Query block: With Human plasmin (Homo sapiens, UniProt P00747) as the test system, provide measured Ki for this compound: NCc1ccc(Cl)cc1CNC(=O)[C@@H]1CCCN1C(=O)[C@@H](CCc1cccc[n+]1[O-])NS(=O)(=O)Cc1ccccc1
Result block: 8470

Query block: // fetch Ki for NCc1ccc(Cl)cc1CNC(=O)[C@H](CN)NC(=O)[C@@H](CCc1cccc[n+]1[O-])NS(=O)(=O)Cc1ccccc1 ; system: Human plasmin (Homo sapiens, UniProt P00747)
Result block: 2300

Query block: Quote Ki with test system Human plasmin (Homo sapiens, UniProt P00747) for CCCS(=O)(=O)NC(CCc1cccc[n+]1[O-])C(=O)NCC(=O)NCc1cc(Cl)ccc1CN (centres unmarked)
Result block: 280000
